Origin of values: PubChem BioAssay

- assay-comment: blockers of RIG-like receptor reporter activation – cell-based, Sendai virus stimulus, luciferase, 10K MLSCN set, TLR/RLR signaling modifier project, primary screen (AID 602276);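 note: firefly luciferase from ISG56 promoter only with Renilla not read in this screen; 0% = Sendai virus plus DMSO and 100% = medium plus DMSO without virus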
- test-settings: HEK293 RL24 IRF3 luciferase reporter, at 10 µM, stronger effect = higher value
metric-name: inhibition (%)
One number for each entry, in %.

Below, 3 compounds whose answers are already recorded.
compound | inhibition / %
O=C(CN(c1ccc(F)cc1)S(=O)(=O)c1ccc2c(c1)OCCO2)NCC1CCCO1 (stereo unspecified) | 17
CCOC(=O)c1sc(NC(=O)c2c(C)nn(Cc3ccccc3)c2C)cc1C | -9.51
CC(C)(C)c1nc(CN2CCOCC2)ccc1O | 10.4

# return inhibition for each item in the list
1. COc1cc2c(cc1NC(=O)CSc1nnc(Cc3cccs3)n1C)oc1ccccc12
2. COc1ccc(NC(=O)Nc2ccccc2C)c(OC)c1
3. COc1ccc(N2CCN(CCNS(=O)(=O)c3cccc4nsnc34)CC2)cc1

output:
1: 13.9; 2: 6.08; 3: 11.2
